test system: SNB-78; test: NCI tumour cell line growth inhibition, 48 h
Structures can show the parent of a compound that is named as a salt. Calls of active or inactive are those of the source. Rule as the data show it: active = GI50 up to about 1.1 µM and inactive = higher.
Select the matching outcome among Yes for active, No for inactive

compound=COC(=O)Cc1cc(=O)n2c([nH]c3ccccc32)c1C#N assigned_class=No
compound=CCOc1ccccc1NC(=O)C1=C(C)NC(C)=C(C(=O)Nc2ccccc2OCC)C1c1ccc2c(c1)OCO2 assigned_class=No
compound="COC(=O)[C@]1(C)CCCC2(C)C1CC[C@H]1C=C(C)[C@H]3CCC12C3 (some centres not stated)" assigned_class=No
compound=CCOc1ccc(NC2=CC(=O)C(=O)c3ccccc32)cc1 assigned_class=No
compound="Cc1ccc(/C=N\\NC2c3cc(Cl)ccc3Nc3nc(O)nc(C)c32)cc1 (configuration not stated)" assigned_class=No

Outcome? `C=C(c1ccccc1)[C@@]1(O)CCCC[C@H]1NC(c1ccccc1)c1ccccc1`
No

Outcome? C/C=C1/C(=Cc2[nH]c(C=c3[nH]/c(=C/C4=NC(=O)C(CC)=C4C)c(C)c3CCC(=O)O)c(CCC(=O)O)c2C)NC(=O)C1C (configuration not stated)
No

Outcome? CC1SC(c2ccccc2)N(Nc2c3ccccc3nc3ccccc23)C1=O (configuration not stated)
No

Outcome? CCOC(=O)C1=C(C)NC(=S)NC1c1ccccc1 (configuration not stated)
No

Outcome? `Cc1c(C2=NN=C(/N=N/c3c(O)cccc3O)/C2=C/c2ccccc2)c(=O)n(-c2ccccc2)n1C`
No

Outcome? `Brc1cc2c(cc1C1SCCS1)OCO2`
No

Outcome? CC1CCCP(=O)(c2ccccc2)CC1 (configuration not stated)
No

Outcome? O=C1c2c(O)cccc2-c2nn(CCNCCO)c3ccc(NCCNCCO)c1c23 [LOSOXANTRONE HYDROCHLORIDE]
Yes

Outcome? `CN(C)CCNc1c([N+](=O)[O-])cc2c3c(cccc13)C(=O)N(CCN(C)C)C2=O`
No

Outcome? O=C(O)CCC(NC(=O)c1ccc(Nc2cnc3cc(C(F)(F)F)ccc3n2)cc1)C(=O)O (configuration not stated)
No

---

test system: SF-295; test: NCI tumour cell line growth inhibition, 48 h
Where a name gives a salt, the structure may show the parent alone. Active and inactive are the calls of the source. Rule as the data show it: active = GI50 up to about 1.1 µM and inactive = higher.
Select the matching outcome among T (active), F (inactive)

Below, 5 compounds whose answers are already recorded.
compound=Cc1ccc(/C=C/C(=O)c2ccc([N+](=O)[O-])cc2)cc1 assigned_class=F
compound=CC(=O)Oc1cc(Cl)c(C)c2c1[C@H]1CC[C@]3(C)[C@@H](OC(C)=O)CC[C@H]3[C@@H]1CC2 assigned_class=F
compound="O=C1c2c(O)cccc2-c2nn(CCNCCO)c3ccc(NCCNCCO)c1c23 [LOSOXANTRONE HYDROCHLORIDE]" assigned_class=T
compound=O=C(O)c1ccc(C(=O)Nc2cccc3ccccc23)c(C(=O)O)c1 assigned_class=F
compound=CC1(C)C=C(N2CCN(C3=CC(C)(C)NC(C)(C)C3)CC2)CC(C)(C)N1 assigned_class=F

Outcome? `CN1CCc2c(sc3nc(Nc4ccccc4)n(N)c(=O)c23)C1`
F

Outcome? `COc1ccccc1OCC(=N/NC(=O)c1ccncc1)/N=C/c1cccnc1`
F

Outcome? CC(=O)CC1(CBr)Nc2ccc([N+](=O)[O-])cc2NC1=O (stereo unspecified)
F

Outcome? `O=CC1=C(C(=O)OC(c2ccccc2)c2ccccc2)N2C(=O)[C@@H](NC(=O)Cc3cccs3)[C@H]2SC1`
F
